Ref: ChEMBL document CHEMBL5356969

Protocol: Thiol reactivity of compound assessed as second order rate constant at 200 uM in presence of TCEP by Ellman's method
Assay type: ADME
Could you please report measured K for the items listed next?

Q: If you can, please state the reported K value of C=CC(=O)Nc1cc(C(F)(F)F)cc(C(F)(F)F)c1 .
Result: 0.38 10^-5/M/s

Q: If you can, please state the reported K value of O=C(CCl)Nc1ccccc1C(F)(F)F .
Result: 0.63 10^-5/M/s

Q: If you can, please state the reported K value of O=C(CCl)Nc1cccc(C(F)(F)F)c1 .
Result: 3.18 10^-5/M/s

Q: If you can, please state the reported K value of NC(=O)CI [IODOACETAMIDE] .
Result: 15.9 10^-5/M/s

Q: If you can, please state the reported K value of O=C(CCl)Nc1ccc(C(F)(F)F)cc1 .
Result: 4.47 10^-5/M/s

Q: If you can, please state the reported K value of O=C(CCl)Nc1cc(C(F)(F)F)cc(C(F)(F)F)c1 .
Result: 4.61 10^-5/M/s
